# test.system: full-length HAQ STING (Homo sapiens, UniProt Q86WV6, G230A/H232R/R293Q/R71H)
# Construct: AviTag (after GG linker) (C); HRV3C cleavage site (after GS linker) (C); HIS8 (C); made in house; host or cells: Trichoplusia ni (Hi-Five) insect cells infected with baculovirus (virus generated and amplified in Sf21 cells); used as a washed membrane preparation
# Sequence (Q86WV6 with tags, fused parts or gaps R71H/G230A/H232R/R293Q): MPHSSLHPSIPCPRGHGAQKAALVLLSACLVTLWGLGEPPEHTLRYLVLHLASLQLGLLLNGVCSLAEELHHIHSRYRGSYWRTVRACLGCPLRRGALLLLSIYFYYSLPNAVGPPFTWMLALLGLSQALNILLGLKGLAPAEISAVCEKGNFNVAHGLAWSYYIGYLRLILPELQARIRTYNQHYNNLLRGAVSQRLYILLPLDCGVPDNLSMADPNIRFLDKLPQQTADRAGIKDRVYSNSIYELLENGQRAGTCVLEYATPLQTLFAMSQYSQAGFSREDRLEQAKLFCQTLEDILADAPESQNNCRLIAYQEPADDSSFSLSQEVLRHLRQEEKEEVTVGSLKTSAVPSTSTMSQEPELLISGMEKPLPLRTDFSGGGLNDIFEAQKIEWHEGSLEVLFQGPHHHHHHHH
# experiment: 3H-cGAMP filtration binding assay (HAQ STING)
# conditions.used: competition with tritiated cGAMP, HAQ STING membrane
metric: EC50 (nM)

Example molecules with recorded EC50:
| molecule | EC50, nM |
| --- | --- |
| COc1cc2sc(C(=O)C[C@H](C)C(=O)O)cc2cc1OCCCCOc1c(OC)cc2sc(C(=O)C[C@H](C)C(=O)O)cc2c1F | 1 |
| COc1cc2sc(C(=O)CCC(=O)O)cc2cc1CCCOc1cc2sc(C(=O)CCC(=O)O)cc2cc1OC | 1080 |
| COc1cc2sc(C(=O)CCC(=O)O)cc2nc1OCCCOc1c(OC)cc2sc(C(=O)C[C@H](C)C(=O)O)cc2c1F | 1 |
| COc1cc2sc(C(=O)CCC(=O)O)cc2cc1CCCOc1cc2nc(C(=O)CCC(=O)O)sc2cc1OC | 84 |

(a) C[C@@H](CC(=O)c1cc2cc(OCCCOc3cc4cc(C(=O)C[C@H](C)C(=O)O)sc4cc3OC(F)F)c(OC(F)F)cc2s1)C(=O)O
(b) COc1cc2sc(C(=O)C[C@H](C)C(=O)O)cc2cc1CCCOc1c(OC)cc2sc(C(=O)CCC(=O)O)cc2c1F
Data request: Sort a and b by EC50 descending and give the first. To answer, give the label that identifies your chosen option.
Data returned: a
(a: 5 nM, b: 2 nM)
